System: Haemonchus contortus
Experiment Notes: Haemonchus contortus assay (HAEMCO), larval mortality
Format: cell-based
Setup Conditions: Haemonchus contortus, 120 h; application rate 20 ppm, after 5 days; read-out: activity (percentage of larval mortality)
Procedure: Haemonchus Contortus—Assay (HAEMCO) Solvent: dimethyl sulfoxide To produce a suitable preparation, 10 mg of active compound are dissolved in 0.5 ml solvent, and the concentrate is diluted with “Ringer's solution” to the desired concentration. Approximately 40 larvae of the red stomach worm (Haemonchus contortus) are transferred into a test tube containing compound solution. After 5 days percentage of larval mortality are recorded. […]
Recorded Endpoint: mortality at 20 ppm (%)
Just the number please, in %, no unit attached.

Answered cases to consult:
Compound: O=C(NCC(F)(F)c1c(F)cc(-c2ccc(F)cc2)cc1F)c1ccccc1C(F)(F)F [Example 16]
Assayed Target: Haemonchus contortus
Test Value: 100
//
Compound: O=C(NCC(F)(F)c1ccc(-c2ccc(F)c(F)c2)cc1Cl)c1ccccc1C(F)(F)F [Example 33]
Assayed Target: Haemonchus contortus
Test Value: 100
//
Compound: O=C(NCC(F)(F)c1ccc(-c2c(F)cccc2F)cc1Cl)c1ccccc1C(F)(F)F [Example 31]
Assayed Target: Haemonchus contortus
Test Value: 80
//
Compound: O=C(NCC(F)(F)c1ccc(-c2ccc(Cl)cc2)cc1F)c1ccccc1C(F)(F)F [Example 5]
Assayed Target: Haemonchus contortus
Test Value: 80
//
Compound: N#Cc1ccc(-c2ccc(C(F)(F)CNC(=O)c3ccccc3C(F)(F)F)c(Cl)c2)cc1 [Example 27]
Assayed Target: Haemonchus contortus
Test Value: 100

// switching to the query compound
## Task Name the recorded mortality at 20 ppm of the compound listed here: O=C(NCC(F)(F)c1ccc(-c2ccc(Cl)cc2)cc1Cl)c1ccccc1C(F)(F)F [Example 1]
## Result 100

###

Experiment Notes: Measurement of LogP values by HPLC on reversed phase columns (EEC directive 79/831 Annex V.A8)
Type: physicochemical
Setup Conditions: acidic range, 0.1% formic acid in water and acetonitrile as eluent
Recorded Endpoint: logP (HCOOH)[a]
Please reply with the value in numeric form only.

Compound: N#Cc1cc(-c2ccc(C(F)(F)CNC(=O)c3ccccc3C(F)(F)F)c(Cl)c2)ccc1F [Example 96]
Recorded Endpoint: logP (HCOOH)[a]
Test Value: 3.81

## Task Name the recorded logP (HCOOH)[a] of the compound listed here: Cc1cc(-c2ccc(F)c(F)c2)ccc1C(F)(F)CNC(=O)c1ccccc1C(F)(F)F [Example 120]
## Result 4.2

## Task Name the recorded logP (HCOOH)[a] of the compound listed here: N#Cc1ccc(-c2ccc(C(F)(F)CNC(=O)c3ccccc3C(F)(F)F)c(C#N)c2)cc1 [Example 73]
## Result 1.33

## Task Name the recorded logP (HCOOH)[a] of the compound listed here: N#Cc1cc(-c2cccc(C(F)F)c2)ccc1C(F)(F)CNC(=O)c1ccccc1C(F)(F)F [Example 79]
## Result 3.59

## Task Name the recorded logP (HCOOH)[a] of the compound listed here: COc1cc(-c2ccc(C#N)cc2)ccc1C(F)(F)CNC(=O)c1ccccc1C(F)(F)F [Example 51]
## Result 3.43

## Task Name the recorded logP (HCOOH)[a] of the compound listed here: O=C(NCC(F)(F)c1ccc(-c2ccc(F)cc2)cc1Cl)c1ccccc1C(F)(F)F [Example 3]
## Result 4.10

## Task Name the recorded logP (HCOOH)[a] of the compound listed here: N#Cc1cc(-c2ccc(SC(F)(F)F)cc2)ccc1C(F)(F)CNC(=O)c1ccccc1C(F)(F)F [Example 83]
## Result 4.5

## Task Name the recorded logP (HCOOH)[a] of the compound listed here: O=C(NCC(F)(F)c1ccc(-c2ccc(N3CCCC3)cc2)cc1Cl)c1ccccc1C(F)(F)F [Example 78]
## Result 5.08

## Task Name the recorded logP (HCOOH)[a] of the compound listed here: O=C(NCC(F)(F)c1c(F)cc(-c2ccc(SC(F)(F)F)cc2)cc1F)c1ccccc1C(F)(F)F [Example 47]
## Result 4.82

## Task Name the recorded logP (HCOOH)[a] of the compound listed here: COc1cc(-c2cc(F)c(F)c(F)c2)ccc1C(F)(F)CNC(=O)c1ccccc1C(F)(F)F [Example 118]
## Result 4.23

## Task Name the recorded logP (HCOOH)[a] of the compound listed here: O=C(NCC(F)(F)c1ccc(-c2cc(F)c(F)c(F)c2)cc1Cl)c1ncccc1C(F)(F)F [Example 112]
## Result 4.23

## Task Name the recorded logP (HCOOH)[a] of the compound listed here: O=C(NCC(F)(F)c1ccc(-c2ccc([S+]([O-])C(F)(F)F)cc2)cc1Cl)c1ccccc1C(F)(F)F (stereo not shown) [Example 56]
## Result 3.87

## Task Name the recorded logP (HCOOH)[a] of the compound listed here: Cc1cc(-c2cccc(C(F)F)c2)ccc1C(F)(F)CNC(=O)c1ccccc1C(F)(F)F [Example 90]
## Result 4.07

## Task Name the recorded logP (HCOOH)[a] of the compound listed here: N#Cc1cc(-c2ccc(C(F)F)cc2)ccc1C(F)(F)CNC(=O)c1ccccc1C(F)(F)F [Example 89]
## Result 3.59

## Task Name the recorded logP (HCOOH)[a] of the compound listed here: N#Cc1cc(-c2ccc(OC(F)(F)F)cc2)ccc1C(F)(F)CNC(=O)c1ccccc1C(F)(F)F [Example 72]
## Result 4.23

## Task Name the recorded logP (HCOOH)[a] of the compound listed here: O=C(NCC(F)(F)c1ccc(-c2cc(F)c(F)c(F)c2)cc1Cl)c1c(F)cccc1F [Example 117]
## Result 4.05

###

Experiment Notes: Measurement of LogP values by HPLC on reversed phase columns (EEC directive 79/831 Annex V.A8)
Type: physicochemical
Setup Conditions: acidic range, 0.1% formic acid in water and acetonitrile as eluent, read-out: logP (HCOOH)[a]
Recorded Endpoint: chromatographic logP
Please reply with the value in numeric form only.

Answered cases to consult:
Compound: O=C(NCC(F)(F)c1ccc(-c2ccc(F)cc2)cc1Cl)c1ccccc1C(F)(F)F [Example 3]
Recorded Endpoint: chromatographic logP
Test Value: 4.14

Compound: O=C(NCC(F)(F)c1ccc(-c2ccc(Cl)cc2)cc1Cl)c1ccccc1C(F)(F)F [Example 1]
Recorded Endpoint: chromatographic logP
Test Value: 4.58

Compound: O=C(NCC(F)(F)c1ccc(-c2ccc(F)c(C(F)(F)F)c2)cc1Cl)c1ccccc1C(F)(F)F [Example 21]
Recorded Endpoint: chromatographic logP
Test Value: 4.55

Compound: O=C(NCC(F)(F)c1ccc(-c2cc(F)cc(F)c2)cc1Cl)c1ccccc1C(F)(F)F [Example 35]
Recorded Endpoint: chromatographic logP
Test Value: 4.3

Compound: COc1cc(-c2ccc(F)cc2)ccc1C(F)(F)CNC(=O)c1ccccc1C(F)(F)F [Example 37]
Recorded Endpoint: chromatographic logP
Test Value: 3.89

## Task Name the recorded chromatographic logP of the compound listed here: O=C(NCC(F)(F)c1ccc(-c2ccc(F)cc2F)cc1Cl)c1ccccc1C(F)(F)F [Example 36]
## Result 4.22

## Task Name the recorded chromatographic logP of the compound listed here: O=C(NCC(F)(F)c1ccc(-c2ccc(C(F)(F)F)c(F)c2)cc1Cl)c1ccccc1C(F)(F)F [Example 22]
## Result 4.62

## Task Name the recorded chromatographic logP of the compound listed here: N#Cc1ccc(-c2ccc(C(F)(F)CNC(=O)c3ccccc3C(F)(F)F)c(Cl)c2)cc1F [Example 25]
## Result 3.77

###

Experiment Notes: Measurement of LogP values by HPLC on reversed phase columns (EEC directive 79/831 Annex V.A8)
Assay type: physicochemical
Setup Conditions: reversed phase HPLC columns, acidic range, 0.1% formic acid in water and acetonitrile as eluent, read-out: logP (HCOOH)[a]
Recorded Endpoint: chromatographic logP
Please reply with the value in numeric form only.

Answered cases to consult:
Structure As Smiles: CSc1ccc(-c2ccc(C(F)(F)CNC(=O)c3ccccc3C(F)(F)F)c(Cl)c2)cc1
chromatographic logP: 4.43
--
Structure As Smiles: CN(C)c1ccc(-c2ccc(C(F)(F)CNC(=O)c3ccccc3C(F)(F)F)c(Cl)c2)cc1
chromatographic logP: 4.28

// switching to the query compound
## Task Name the recorded chromatographic logP of the compound listed here: COc1cc(-c2ccc(C(F)(F)CNC(=O)c3ccccc3C(F)(F)F)c(Cl)c2)ccc1F
## Result 4.09

###

Test system: Haemonchus contortus
Experiment Notes: Haemonchus contortus assay (HAEMCO), larval mortality
Format: cell-based
Setup Conditions: Haemonchus contortus, 120 h; application rate 20 ppm, after 5 days; read-out: activity (percentage of larval mortality)
Recorded Endpoint: mortality at 20 ppm (%)
Just the number please, in %, no unit attached.

Structure As Smiles: O=C(NCC(F)(F)c1ccc(-c2ccc(F)cc2)cc1F)c1ccccc1C(F)(F)F
Display Unit: %
mortality at 20 ppm: 90
//
Structure As Smiles: O=C(NCC(F)(F)c1ccc(-c2ccc(Cl)cc2)cc1C(F)(F)F)c1ccccc1C(F)(F)F
Display Unit: %
mortality at 20 ppm: 90
//
Structure As Smiles: O=C(NCC(F)(F)c1ccc(-c2ccc(SC(F)(F)F)cc2)cc1Cl)c1ccccc1C(F)(F)F
Display Unit: %
mortality at 20 ppm: 100
//
Structure As Smiles: O=C(NCC(F)(F)c1ccc(-c2ccc(F)cc2)cc1C(F)(F)F)c1cccnc1C(F)(F)F
Display Unit: %
mortality at 20 ppm: 100
//
Structure As Smiles: O=C(NCC(F)(F)c1ccc(-c2cc(F)cc(F)c2)cc1Cl)c1ccccc1C(F)(F)F
Display Unit: %
mortality at 20 ppm: 100
//
Structure As Smiles: O=C(NCC(F)(F)c1ccc(-c2ccc(OC(F)(F)F)cc2)cc1F)c1ccccc1C(F)(F)F
Display Unit: %
mortality at 20 ppm: 90
//
Structure As Smiles: O=C(NCC(F)(F)c1ccc(-c2cc(F)c(F)c(F)c2)cc1Cl)c1ccccc1C(F)(F)F
Display Unit: %
mortality at 20 ppm: 100

## Task Name the recorded mortality at 20 ppm of the compound listed here: O=C(NCC(F)(F)c1ccc(-c2ccc(F)cc2)cc1Cl)c1cccnc1C(F)(F)F
## Result 100
